// data source = PubChem BioAssay AID1418

# key: entry, value: IC50
TARGET SYSTEM: Induced myeloid leukemia cell differentiation protein Mcl-1 (Homo sapiens)
ASSAY: blockers of Bid binding to Mcl-1 – biochemical, TR-FRET, dose response (AID 1418)
CONDITION SET: Mcl-1/Bid peptide binding, TR-FRET (europium/Dy647), 2 hr
Active and inactive are the calls of the source. The rule behind the calls is not given here.
OUTCOME MEASURE: IC50

>>> value("Cc1ccc([N+](=O)[O-])cc1N=Nc1c(-c2ccc([N+](=O)[O-])cc2)[nH]n(C(N)=S)c1=O")
"2220 nM"
>>> value("COc1ccc(N/C=C2\\C(=O)CCc3c2oc2cc(Cl)c(O)c(Cl)c32)cc1")
"790 nM"
>>> value("O=C(Nc1ccc(CCC(=O)N2CCCC2)cc1)c1ncn[nH]1")
"> 54000 nM (inactive)"
>>> value("Cn1c(SCC(=O)N=Nc2c(O)[nH]c3ccccc23)nc2ccccc21")
"> 54000 nM (inactive)"
>>> value("C#CCOCCOCCOCCNc1nc(N2CCN(C(=O)[C@H](Cc3cc4ccccc4[nH]3)n3cc([C@@H](N)C(C)CC)nn3)CC2)nc(N2CCN(C(=O)[C@H](CCCCN)n3cc([C@@H](N)CC(C)C)nn3)CC2)n1 (some centres undefined)")
"16900 nM"
>>> value("C=CCn1c(O)c(C(C)=NCC2CCCO2)c(=O)[nH]c1=O (centres undefined)")
"480 nM"
>>> value("COc1cc(OC)cc(C(=O)N[C@H](C(=O)OCC(=O)NC(=O)c2cccn2C)C(C)C)c1")
"> 54000 nM (inactive)"
>>> value("COc1cc(/C=N/Nc2nnc3c(n2)[nH]c2ccccc23)ccc1O")
"2660 nM"
>>> value("COc1ccc(C2(C)NC(=O)N(CC(=O)NCCC3=CCCCC3)C2=O)cc1OC (centres undefined)")
"> 54000 nM (inactive)"

====

TARGET SYSTEM: Induced myeloid leukemia cell differentiation protein Mcl-1 (Homo sapiens) (UniProt Q07820)
Sequence (Q07820 whole entry, looked up): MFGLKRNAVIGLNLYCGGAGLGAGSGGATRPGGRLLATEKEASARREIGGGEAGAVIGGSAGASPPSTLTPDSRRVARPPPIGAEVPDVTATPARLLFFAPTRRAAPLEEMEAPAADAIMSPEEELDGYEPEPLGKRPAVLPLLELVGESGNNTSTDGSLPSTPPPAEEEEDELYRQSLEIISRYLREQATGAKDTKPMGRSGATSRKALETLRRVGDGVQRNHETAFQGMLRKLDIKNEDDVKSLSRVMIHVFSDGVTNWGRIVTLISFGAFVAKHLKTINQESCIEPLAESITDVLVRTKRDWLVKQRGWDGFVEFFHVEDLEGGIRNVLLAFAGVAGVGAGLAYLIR
ASSAY: blockers of Bid binding to Mcl-1 – biochemical, TR-FRET, dose response (AID 1418)
CONDITION SET: Mcl-1/Bid peptide binding, TR-FRET (europium/Dy647), 2 hr
Activity calls are given as the source filed them. The rule behind the calls is not given here.
Possible outcomes: y for active, n for inactive

>>> group("CCCOc1cccc(CN2CCCCC2c2cccnc2)c1 (stereo not given)")
"n"
>>> group("CCC1Oc2ccc(C)cc2N(CC(=O)N(Cc2cccnc2)Cc2ccc(C)o2)C1=O (stereo not given)")
"n"
>>> group("O=c1c2ccccc2sc2nc(C3CCCCC3)n(Cc3ccco3)c(=O)c12")
"y"
>>> group("CC(/C=C1\\SC(=S)N(NS(=O)(=O)c2ccc(C)cc2)C1=O)=C\\c1ccccc1")
"y"
>>> group("CN(C)S(=O)(=O)c1cc(S(=O)(=O)N(C)C)c(Cl)cc1N")
"n"

====

TARGET SYSTEM: Induced myeloid leukemia cell differentiation protein Mcl-1 (Homo sapiens)
ASSAY: blockers of Bid binding to Mcl-1 – biochemical, TR-FRET, dose response (AID 1418)
CONDITION SET: Mcl-1/Bid peptide binding, TR-FRET (europium/Dy647), 2 hr
Active and inactive are the calls of the source. No rule for the calls is given here.
Outcome codes: active, inactive

>>> group("COC(=O)c1c(C)[nH]c(C)c1C(C)=O")
"active"
>>> group("COC(=O)c1ccc2c(=O)n(CCCCCC(=O)NCc3ccc4c(c3)OCO4)c(=O)[nH]c2c1")
"inactive"
>>> group("CC(C)(C)CC(=O)O/N=C(\\N)c1ccccn1")
"inactive"
>>> group("COC(=O)c1ccccc1NC(=O)COC(=O)/C=C/c1ccco1")
"inactive"
>>> group("CCOc1ccc2nc(NC(=O)c3cccc(-c4cc5ccccc5oc4=O)c3)sc2c1")
"active"
>>> group("COc1cccc(NC(=O)C(=O)N/N=C/c2cc(C)n(-c3ccc(Cl)c(Cl)c3)c2C)c1")
"inactive"
>>> group("NC(=S)n1[nH]c(-c2ccc([N+](=O)[O-])cc2)c(N=Nc2ccc(Cl)cc2)c1=O")
"active"
>>> group("O=C(/C=C\\Nc1ccc(S(=O)(=O)Nc2ncccn2)cc1)c1cccc2ccccc12")
"inactive"
>>> group("COC(=O)c1ccc(COC(=O)c2ccc(CS(=O)(=O)c3ccc(C)cc3)cc2)cc1")
"active"
>>> group("Cc1cc(NC2C3CC4CC(C3)CC2C4)n2nnnc2n1 (stereo unspecified)")
"inactive"
>>> group("Cc1ccc(C)c(C(=O)COC(=O)CCCC(=O)Nc2cc(C(F)(F)F)ccc2Cl)c1")
"inactive"
>>> group("NC(=O)N1CCN(C(=O)c2ccco2)CC1")
"inactive"
>>> group("FC(F)(F)c1cccc(N/N=C/c2ccccc2)c1")
"inactive"
>>> group("C=CCOC(=O)c1cc(-c2ccc(/C=C3\\C(=O)NC(=O)C(C#N)=C3C)o2)ccc1Cl")
"active"
>>> group("Oc1c(C(c2ccc(Cl)cc2)N2CCCC2)cc(Cl)c2cccnc12 (stereo unspecified)")
"active"
>>> group("CN1/C(=C\\C=C2C(=O)NC(=S)NC2=O)C(C)(C)c2ccccc21")
"inactive"
>>> group("CCN(CC)CCNC(=O)/C(=C/c1cn(C)c2ccccc12)NC(=O)c1ccc(OC)c(OC)c1")
"inactive"
>>> group("O=C(CN(C(=O)CNC(=O)c1ccco1)c1ccc2c(c1)OCO2)NC1CCCCC1")
"inactive"
>>> group("O=C(CSc1nnc2scc(-c3ccccc3)n12)N1CCN(Cc2ccccc2)CC1")
"inactive"
>>> group("COc1cc(OC)c2c(O)c3c(c(-c4c5c(c(O)c6c(OC)cc(OC)cc46)CO[C@@H](C)[C@H]5O)c2c1)[C@H](O)[C@H](C)OC3")
"active"
>>> group("O=C(Nc1ccc(S(=O)(=O)Nc2nccs2)cc1)c1cc(-c2ccccc2Cl)nc2ccccc12")
"inactive"

====

TARGET SYSTEM: Induced myeloid leukemia cell differentiation protein Mcl-1 (Homo sapiens)
ASSAY: blockers of Bid binding to Mcl-1 – biochemical, TR-FRET, dose response (AID 1418)
CONDITION SET: Mcl-1/Bid peptide binding, TR-FRET (europium/Dy647), 2 hr
Activity calls are given as the source filed them. No rule for the calls is given here.
Outcome codes: T (active), F (inactive)

>>> group("Cn1c2ccccc2c(=O)c2c(=O)n(C3CCCCCC3)c(C3CCCCC3)nc21")
"T"
>>> group("COc1ccc(NC(C)C(=O)Nc2ccc(C#N)cc2)cc1Cl (stereo not given)")
"F"
>>> group("COC(=O)c1ccccc1S(=O)(=O)N1CCn2cccc2C1C (stereo not given)")
"F"
>>> group("Cc1cccc(OCc2nc(C#N)c(NCc3ccc4c(c3)OCO4)o2)c1")
"F"
>>> group("COc1ccc(C)cc1S(=O)(=O)N(C)CC(=O)NCc1ccco1")
"F"
>>> group("COc1ccc(NS(=O)(=O)c2cccc(NC(=O)CCC(=O)c3ccc(Cl)cc3)c2)cc1")
"F"
>>> group("C/C(=N\\NC(=O)c1cc(-c2cccc([N+](=O)[O-])c2)n[nH]1)c1ccccc1O")
"T"
>>> group("COc1ccc2nc(NC(=O)c3ccc(-c4cccc([N+](=O)[O-])c4)o3)sc2c1")
"T"
>>> group("O=C1OC(c2ccccc2)=C/C1=C/N1CCCCC1")
"F"
>>> group("COc1cc(/C=C(/C#N)c2nc3ccccc3c(=O)[nH]2)ccc1O")
"T"

====

TARGET SYSTEM: Induced myeloid leukemia cell differentiation protein Mcl-1 (Homo sapiens) (UniProt Q07820)
ASSAY: blockers of Bid binding to Mcl-1 – biochemical, TR-FRET, dose response (AID 1418)
CONDITION SET: Mcl-1/Bid peptide binding, TR-FRET (europium/Dy647), 2 hr
The source made the active and inactive calls. The rule behind the calls is not given here.
Classes used: Yes (active), No (inactive)

>>> group("COc1ccc(C(=O)C2CCCN(Cc3cn[nH]c3-c3ccc(F)cc3)C2)cc1OC (stereo not given)")
"No"
>>> group("O=[N+]([O-])/C(C(Cl)=C(Cl)Cl)=C(\\Nc1ccc(F)cc1)n1cncn1")
"Yes"
>>> group("CC(C)(C)c1nc2ccccc2c2nnc(SCC(=O)Nc3nc4ccccc4s3)n12")
"Yes"
>>> group("CNNC(=O)C(=O)NNS(=O)(=O)c1ccccc1")
"No"
>>> group("COc1ccc(-c2cc(C(F)(F)F)nc(N3CCOCC3)n2)cc1OC")
"No"

====

TARGET SYSTEM: Induced myeloid leukemia cell differentiation protein Mcl-1 (Homo sapiens) (UniProt Q07820)
ASSAY: blockers of Bid binding to Mcl-1 – biochemical, TR-FRET, dose response (AID 1418)
CONDITION SET: Mcl-1/Bid peptide binding, TR-FRET (europium/Dy647), 2 hr
Calls of active or inactive are those of the source. No rule for the calls is given here.
Classes used: true (1) for active, false (0) for inactive

>>> group("O=C(O)Cn1cnc2c(=S)nc[nH]c21")
"false (0)"
>>> group("COc1ccccc1NC(=O)c1cn(C)c(=O)c2cc(OC)c(OC)cc12")
"false (0)"
>>> group("COc1cccc(OC)c1C(=O)Nc1ccccc1C(=O)N1CCOCC1")
"false (0)"
>>> group("Fc1ccc(NC(=S)N/N=C/c2cccc(Br)c2)c(F)c1")
"false (0)"
>>> group("CCCCN(Cc1cc2cc(OC)ccc2[nH]c1=O)C(=O)c1ccccn1")
"false (0)"
>>> group("CC(=O)N1CCc2cc(S(=O)(=O)NC(Cc3ccccc3)C(=O)NC3CCCCCC3)ccc21 (stereo unspecified)")
"false (0)"
>>> group("CCCCN1C(=O)/C(=C/C=C/c2ccco2)C(=O)NC1=S")
"true (1)"
>>> group("O=C(COc1ccccc1)N1CCN(Cc2c[nH]c3ccccc23)CC1")
"false (0)"
>>> group("O=C(CNC(=O)c1ccc([N+](=O)[O-])cc1)N/N=C\\c1ccc(OC(=O)c2ccccc2)cc1")
"true (1)"
>>> group("CC1CCc2c(sc3ncn(CC(=O)N=Nc4c(O)[nH]c5ccccc45)c(=O)c23)C1 (stereo unspecified)")
"true (1)"
>>> group("CC(C(=O)O)n1nc2ccccc2n1 (stereo unspecified)")
"false (0)"
